Data origin, for the record: paper PMC10647531

Tested on: ferrous-treated rat brain homogenates
test: Lipid peroxidation assay (TBARS)
Assay type: biochemical
testSettings: rat brain homogenate; mean ± SD of triplicate experiments
recordedEndpoint: IC50 (µM)
Answer format: numeric, µM implied, no suffix.

Recorded IC50, per entry:
{"columns": ["compound", "IC50, µM"],
 "data": [
  ["Cc1c(C)c2c(c(C)c1O)CCC(C)(C(=O)O)O2 (stereo not drawn) [Trolox, reference compound]", 32.3],
  ["COc1ccc(-c2oc3c(CC=C(C)C)c(O[C@@H]4O[C@H](CO)[C@@H](O)[C@H](O)[C@H]4O)cc(O)c3c(=O)c2O[C@@H]2O[C@@H](C)[C@H](O)[C@@H](O)[C@H]2O)cc1 [Icariin, icariin]", 301]
]}

Proceed to the following item.
Request: Which IC50 is listed for COc1ccc(-c2oc3c(CC=C(C)C)c(O)cc(O)c3c(=O)c2O)cc1 [Icaritin, icaritin] ?
Response: 81.3
